System: Vero E6 infected with SARS-CoV-2
Test: inhibition of SARS-CoV-2 cytopathic effect; higher = more antiviral protection, active = above 15
Conditions: 10000 nM; 48 h
Just give me one of these, please: active, inactive

{"columns": ["molecule", "measured.target", "assigned.category"],
 "data": [
  ["CC1=NN(c2ccc(C)c(C)c2)C(=O)/C1=N\\Nc1cccc(-c2cccc(C(=O)O)c2)c1O [eltrombopag]", "Vero E6 infected with SARS-CoV-2", "inactive"]
]}

Ask | What was the test verdict on `COc1cc(N2CCC(N)CC2)ccc1Nc1ncc(Cl)c(-c2c[nH]c3ccccc23)n1` ?
Reply | inactive

Ask | Per the assay record, what outcome was assigned to `Cc1ccc2cc(-c3c(C)ccc(C(=O)c4c(-c5ccccc5)n(C)n(-c5ccccc5)c4=O)c3N)ccc2n1` ?
Reply | active

Ask | Check the results log: what was the call for CCOCc1nc2c(N)nc3ccccc3c2n1CC(C)(C)O [resiquimod] ?
Reply | inactive

###

Tested on: Vero E6 infected with SARS-CoV-2
Experiment: inhibition of SARS-CoV-2 cytopathic effect; higher = more antiviral protection, active = above 15
Conditions: 1 nM; 48 h
observed.property: inhibition of SARS-CoV-2 cytopathic effect (%)
Your answer should be a plain number; it is taken to be in %.

{"columns": ["compound", "unit", "result.number"],
 "data": [
  ["CC(C)n1nnc2cc(C(=O)O)ccc21", "%", 2.69]
]}

Ask | Look up and report measured inhibition of SARS-CoV-2 cytopathic effect for this entry: CCCCCCCCCCCCCCCCCCCCCCO [docosanol]
Reply | -8.94

Ask | Look up and state reported inhibition of SARS-CoV-2 cytopathic effect for CCCCNc1cc(C(=O)O)cc(S(N)(=O)=O)c1Oc1ccccc1 [bumetanide]
Reply | 0.26

Ask | Name the recorded inhibition of SARS-CoV-2 cytopathic effect of the compound listed here: `O=C(NCCCCN1CCN(c2cccc(Cl)c2Cl)CC1)c1ccc2c(c1)Cc1ccccc1-2`
Reply | 0.39

###

inhibition of SARS-CoV-2 cytopathic effect values by entry
Tested on: Vero E6 infected with SARS-CoV-2
Experiment: inhibition of SARS-CoV-2 cytopathic effect; higher = more antiviral protection, active = above 15
Conditions: 10000 nM; 48 h
Just the number please, in %, no unit attached.

{"columns": ["compound", "measured.target", "unit", "result.number"],
 "data": [
  ["CC(C)(C)c1nc(-c2cccc(NS(=O)(=O)c3c(F)cccc3F)c2F)c(-c2ccnc(N)n2)s1 [dabrafenib]", "Vero E6 infected with SARS-CoV-2", "%", 13.1]
]}

Ask | State, in one line, measured inhibition of SARS-CoV-2 cytopathic effect of `Cc1nc2c(O)cccc2c(=O)[nH]1`
Reply | 4.88

Ask | Tell me measured inhibition of SARS-CoV-2 cytopathic effect for CCCCCCCCCCCCCCCCCC(=O)OC[C@@H](O)[C@H]1OC[C@H](O)[C@H]1O [sorbitan-monostearate] please.
Reply | -0.38

Ask | Specify measured inhibition of SARS-CoV-2 cytopathic effect for NS(=O)(=O)c1cc(C(=O)O)cc(N2CCCC2)c1Oc1ccccc1 [piretanide] .
Reply | 1

Ask | Please give measured inhibition of SARS-CoV-2 cytopathic effect of the following entry: CCC(=O)c1ccc(OCC(O)CN2CCN(c3ccccc3)CC2)cc1 (stereo not given) [centpropazine]
Reply | -0.58

The values you see were collected from the supplement of paper PMC13380429.
